Tested on: aorta
Conditions: ApoE mice on high-fat diet 35-42 weeks, 0.3-0.4 mCi/kg bolus via tail vein, 60 min post injection
PROPERTY NAME: aorta uptake (% ID/g)
// return numeric value only (unit: % ID/g, not printed)

Input: Requested read-out: aorta uptake (% ID/g). Entry: N[C@H](CCc1ccccc1)C(=O)NOCc1ccc(CNC(=O)CN2CCN(CC(=O)[O-])CCN(CC(=O)[O-])CCN(CC(=O)[O-])CC2)cc1.[153Gd+3] [Example 38]
Output: 11.6

Input: Requested read-out: aorta uptake (% ID/g). Entry: CC(C)C[C@@H]([NH3+])C(=O)NOCCCCCCNC(=O)CN(CCN(CC(=O)[O-])CC(=O)[O-])CCN(CC(=O)[O-])CC(=O)[O-].[153Gd+3] [Example 40]
Output: 3.6

Input: Requested read-out: aorta uptake (% ID/g). Entry: CONC(=O)C(CCc1ccccc1)NCc1ccc(CNC(=O)CN2CCN(CC(=O)[O-])CCN(CC(=O)[O-])CCN(CC(=O)[O-])CC2)cc1.[153Gd+3] (centres unmarked) [Example 52]
Output: 6.1

Input: Requested read-out: aorta uptake (% ID/g). Entry: O=C([O-])CN1CCN(CC(=O)[O-])CCN(CC(=O)NCc2ccc(CNC(CCc3ccccc3)C(=O)NOCc3ccccc3)cc2)CCN(CC(=O)[O-])CC1.[153Gd+3] (centres unmarked) [Example 53]
Output: 1.5

Input: Requested read-out: aorta uptake (% ID/g). Entry: CC(C)C[C@@H]([NH3+])C(=O)NOCCc1ccc(CNC(=O)CN(CCN(CC(=O)[O-])CC(=O)[O-])CCN(CC(=O)[O-])CC(=O)[O-])cc1.[153Gd+3] [Example 49]
Output: 4.9

* * *

Test system: aorta
Conditions: ApoE mice on high-fat diet 35-42 weeks, 0.3-0.4 mCi/kg bolus via tail vein, 60 min post injection
PROPERTY NAME: aorta uptake (% ID/g)
// return numeric value only (unit: % ID/g, not printed)

N[C@H](Cc1ccc(CNC(=O)CN2CCN(CC(=O)[O-])CCN(CC(=O)[O-])CCN(CC(=O)[O-])CC2)cc1)C(=O)NOCc1ccccc1.[153Gd+3] :: 3.0

Input: Requested read-out: aorta uptake (% ID/g). Entry: CC(C)C[C@@H]([NH3+])C(=O)NOc1ccc(CNC(=O)CN(CCN(CC(=O)[O-])CC(=O)[O-])CCN(CC(=O)[O-])CC(=O)[O-])cc1.[153Gd+3]
Output: 0.9

Input: Requested read-out: aorta uptake (% ID/g). Entry: [153Gd+3].[NH3+][C@H](CC1CCCCC1)C(=O)NOCCCCCCNC(=O)CN(CCN(CC(=O)[O-])CC(=O)[O-])CCN(CC(=O)[O-])CC(=O)[O-]
Output: 8.1

Input: Requested read-out: aorta uptake (% ID/g). Entry: [153Gd+3].[NH3+][C@H](CCc1ccccc1)C(=O)NOCCCCCCNC(=O)CN(CCN(CC(=O)[O-])CC(=O)[O-])CCN(CC(=O)[O-])CC(=O)[O-]
Output: 9.0

Input: Requested read-out: aorta uptake (% ID/g). Entry: CONC(=O)[C@H](N)Cc1ccc(CNC(=O)CN2CCN(CC(=O)[O-])CCN(CC(=O)[O-])CCN(CC(=O)[O-])CC2)cc1.[153Gd+3]
Output: 2.5

Input: Requested read-out: aorta uptake (% ID/g). Entry: [153Gd+3].[NH3+][C@H](Cc1cc2ccccc2[nH]1)C(=O)NOCc1ccc(CNC(=O)CN(CCN(CC(=O)[O-])CC(=O)[O-])CCN(CC(=O)[O-])CC(=O)[O-])cc1
Output: 19.3

* * *

System: aorta
Settings: ApoE mice, 60 min post injection, uptake ratio
Reported values of aorta:blood for individual entries
// response body must contain only the number

Input: Requested read-out: aorta:blood. Entry: N[C@H](CCc1ccccc1)C(=O)NOCc1ccc(CNC(=O)CN2CCN(CC(=O)[O-])CCN(CC(=O)[O-])CCN(CC(=O)[O-])CC2)cc1.[153Gd+3]
Output: 5.5

Input: Requested read-out: aorta:blood. Entry: [153Gd+3].[NH3+][C@@H](CCc1ccccc1)C(=O)NOCc1ccc(CNC(=O)CN(CCN(CC(=O)[O-])CC(=O)[O-])CCN(CC(=O)[O-])CC(=O)[O-])cc1
Output: 11.4

Input: Requested read-out: aorta:blood. Entry: CC(C)C[C@@H]([NH3+])C(=O)NOCc1ccc(CNC(=O)CN(CCN(CC(=O)[O-])CC(=O)[O-])CCN(CC(=O)[O-])CC(=O)[O-])cc1.[153Gd+3]
Output: 5.5

* * *

System: Aorta bearing atherosclerotic plaque
Assay: Ex-vivo blood vessel binding assay
Design: species or system New Zealand white rabbits
Details: 153Gd-labeled compound 0.135 μCi in PBS, 2 h at 37° C., plaque-bearing rabbit aorta sections; percentage of initial activity
Reported values of % bound for individual entries
// return numeric value only (unit: %, not printed)

Would you please look over these solved cases?
[153Gd+3].[NH3+][C@H](CCc1ccccc1)C(=O)NOCCCc1ccc(CNC(=O)CN(CCN(CC(=O)[O-])CC(=O)[O-])CCN(CC(=O)[O-])CC(=O)[O-])cc1 :: 27.3
[153Gd+3].[NH3+][C@H](CCc1ccccc1)C(=O)NOCCc1ccc(CNC(=O)CN(CCN(CC(=O)[O-])CC(=O)[O-])CCN(CC(=O)[O-])CC(=O)[O-])cc1 :: 24.2
CC(C)C[C@@H]([NH3+])C(=O)NOCCc1ccc(CNC(=O)CN(CCN(CC(=O)[O-])CC(=O)[O-])CCN(CC(=O)[O-])CC(=O)[O-])cc1.[153Gd+3] :: 9.1

Input: Requested read-out: % bound. Entry: [153Gd+3].[NH3+][C@H](CCc1ccccc1)C(=O)NOCCCCCCNC(=O)CN(CCN(CC(=O)[O-])CC(=O)[O-])CCN(CC(=O)[O-])CC(=O)[O-]
Output: 14.4

Input: Requested read-out: % bound. Entry: N[C@H](Cc1cc2ccccc2[nH]1)C(=O)NOCc1ccc(CNC(=O)CN2CCN(CC(=O)[O-])CCN(CC(=O)[O-])CCN(CC(=O)[O-])CC2)cc1.[153Gd+3]
Output: 17.1

* * *

Tested on: aorta
Settings: ApoE mice on high-fat diet 35-42 weeks, 0.3-0.4 mCi/kg bolus via tail vein, 60 min post injection
PROPERTY NAME: aorta uptake (% ID/g)
// return numeric value only (unit: % ID/g, not printed)

[153Gd+3].[NH3+][C@H](Cc1c[nH]c2ccccc12)C(=O)NOCCCc1ccc(CNC(=O)CN(CCN(CC(=O)[O-])CC(=O)[O-])CCN(CC(=O)[O-])CC(=O)[O-])cc1 :: 6.0
[153Gd+3].[NH3+][C@H](Cc1ccc(O)cc1)C(=O)NOCc1ccc(CNC(=O)CN(CCN(CC(=O)[O-])CC(=O)[O-])CCN(CC(=O)[O-])CC(=O)[O-])cc1 :: 8.7

Alright, here's another compound for you.
Input: Requested read-out: aorta uptake (% ID/g). Entry: [153Gd+3].[NH3+][C@H](CCc1ccccc1)C(=O)NOCc1ccc(CNC(=O)CN(CCN(CC(=O)[O-])CC(=O)[O-])CCN(CC(=O)[O-])CC(=O)[O-])cc1
Output: 10.4

* * *

Test system: aorta
Details: ApoE mice, 60 min post injection, uptake ratio
Reported values of aorta:blood for individual entries
// response body must contain only the number

Would you please look over these solved cases?
O=C([O-])CN1CCN(CC(=O)[O-])CCN(CC(=O)NCc2ccc(CNC(CCc3ccccc3)C(=O)NOCc3ccccc3)cc2)CCN(CC(=O)[O-])CC1.[153Gd+3] (centres unmarked) :: 0.8
CONC(=O)[C@H](N)Cc1ccc(CNC(=O)CN2CCN(CC(=O)[O-])CCN(CC(=O)[O-])CCN(CC(=O)[O-])CC2)cc1.[153Gd+3] :: 1.2
[153Gd+3].[NH3+][C@H](CCc1ccccc1)C(=O)NOCCCCCCNC(=O)CN(CCN(CC(=O)[O-])CC(=O)[O-])CCN(CC(=O)[O-])CC(=O)[O-] :: 2.1
[153Gd+3].[NH3+][C@H](CCc1ccccc1)C(=O)NOCCc1ccc(CNC(=O)CN(CCN(CC(=O)[O-])CC(=O)[O-])CCN(CC(=O)[O-])CC(=O)[O-])cc1 :: 3.7
CC(C)C[C@@H]([NH3+])C(=O)NOc1ccc(CNC(=O)CN(CCN(CC(=O)[O-])CC(=O)[O-])CCN(CC(=O)[O-])CC(=O)[O-])cc1.[153Gd+3] :: 1.1

Input: Requested read-out: aorta:blood. Entry: N[C@H](Cc1ccc2ccccc2c1)C(=O)NOCc1ccc(CNC(=O)CN2CCN(CC(=O)[O-])CCN(CC(=O)[O-])CCN(CC(=O)[O-])CC2)cc1.[153Gd+3]
Output: 9.8

Input: Requested read-out: aorta:blood. Entry: N[C@H](Cc1cc2ccccc2[nH]1)C(=O)NOCc1ccc(CNC(=O)CN2CCN(CC(=O)[O-])CCN(CC(=O)[O-])CCN(CC(=O)[O-])CC2)cc1.[153Gd+3]
Output: 5.7

Input: Requested read-out: aorta:blood. Entry: [153Gd+3].[NH3+][C@H](CCc1ccccc1)C(=O)NOCc1ccc(CNC(=O)CN(CCN(CC(=O)[O-])CC(=O)[O-])CCN(CC(=O)[O-])CC(=O)[O-])cc1
Output: 4.2
